Molecular target: recombinant purified human IL-12 p70 (human) (UniProt P29459)
Sequence (chain, as listed by the source, form in doubt, chain 1 of 2): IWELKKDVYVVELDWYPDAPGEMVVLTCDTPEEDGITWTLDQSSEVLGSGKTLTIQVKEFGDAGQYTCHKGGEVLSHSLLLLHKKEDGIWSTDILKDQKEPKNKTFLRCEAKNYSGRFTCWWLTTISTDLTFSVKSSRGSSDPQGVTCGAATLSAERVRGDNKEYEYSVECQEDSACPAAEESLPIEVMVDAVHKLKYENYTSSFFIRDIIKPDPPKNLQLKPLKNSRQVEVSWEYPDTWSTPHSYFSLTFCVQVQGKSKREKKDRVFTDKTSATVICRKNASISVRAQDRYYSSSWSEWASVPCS
Sequence (P29459 23-219, form in doubt, chain 2 of 2): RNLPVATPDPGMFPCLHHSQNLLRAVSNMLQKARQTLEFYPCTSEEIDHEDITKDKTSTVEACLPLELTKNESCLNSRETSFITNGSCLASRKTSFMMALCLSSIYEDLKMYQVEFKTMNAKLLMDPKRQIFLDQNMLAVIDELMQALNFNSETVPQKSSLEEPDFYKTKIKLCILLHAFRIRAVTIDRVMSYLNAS
Assay: SPR (BIAcore) per Example 1.1.B; antigen not restated, taken as human IL-12 p70
Property Name: koff (s⁻¹)
Provide the reading as a plain figure in s⁻¹.

Hello, please tell me recorded koff for this one: 1D4.4 (antibody, human IgG1, V domains shown) VH: EVTLRESGPALVKPTQTLTLTCTFSGFSLSKSVMGVSWIRQPPGKALEWLAHIYWDDDKYYNPSLKSRLTISKDTSKNQVVLTMTNMDPVDTATYYCARRGIRSAMDYWGQGTTVTVSS VL: SVVMTQTPKFLLVSAGDRVTITCKASQSVSNDVAWYQQKPGQSPKLLIYYASNRYTGVPDRFTGSGYGTDFTFIISTVRAEDLAVYFCQQDYNSPWTFGGGTKLEIKR 2.1e-05

# return recorded koff for input 1A6.4 (antibody, human IgG1, V domains shown) VH: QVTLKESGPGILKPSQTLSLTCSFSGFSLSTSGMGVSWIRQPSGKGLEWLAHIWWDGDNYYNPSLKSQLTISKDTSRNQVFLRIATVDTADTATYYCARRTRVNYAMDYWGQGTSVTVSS VL: EIVMTQSPATLSVSPGERATLSCKASQSVSNDVAWYQQKPGQAPRLLIYYASNRYTGIPARFSGSGSGTEFTLTISSLQSEDFAVYYCQQDYNSPWTFGGGTKVEIKR 0.00011

Query koff for 1D4.5 (antibody, human IgG1, V domains shown) VH: QVTLKESGPGILQPSQTLSLTCSFSGFSLRKSVMGVSWIRQPSGKGLEWLAHIYWDDDKYYNPSLKSRLTISKDPSRNQVFLKITSVDTADAATYYCTRRGIRSAMDYWGQGTSVTVSS VL: DIVMTQSPDSLAVSLGERATINCKASQSVSNDVAWYQQKPGQPPKLLIYYASNRYTGVPDRFSGSGSGTDFTLTISSLQAEDVAVYYCQQDYNSPWTFGGGTKVEIKR 3.1e-05
